This collection of values is drawn from ChEMBL document CHEMBL4011611.

Assay: Cytotoxicity against human A549 cells after 24 hrs by MTT assay
Type: cell-based
Conditions: read-out: MNCC
Assay endpoint: MNTC at 24 h

Looking up CC1=CC(=O)c2c(O)cccc2C1=O [PLUMBAGIN] , I found its MNTC at 24 h recorded as ≤ 2000 nM
